Tested on: Inhibin beta A chain (activin A)
protocol.description: INHBA (activin A) binders on microarrays, primary screen, biochemical, small-molecule microarray, 635 nm fluorescence scan (AID 1107);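 further: mouse activin A protein probed at 4.33 µg/mL on printed slides; score merges bound-protein fluorescence near 667 nm with spot signal-to-noise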
test.conditions: small-molecule microarray binding, higher = more signal
Collected composite z-score values appear next to each entry.
reported.endpoint: composite z-score

• Cc1ccc(S[C@]2(C(=O)NCCN3CCOCC3)CC(=O)N(Cc3ccccc3Cl)[C@@H]2c2ccc(CO)cc2)cc1 = 0.425
• COC(=O)[C@@]1(Cc2ccc(OC)cc2)[C@H]2c3cc(C(=O)N4CCCC4)n(Cc4ccccc4)c3C[C@H]2CN1C(=O)c1ccccc1 = 0.651
• COCCOC(=O)N1C(=O)[C@@]2(c3cc(C#CC4=CCCCC4)ccc31)[C@H](c1ccc(O)cc1)N1[C@H](c3ccccc3)[C@H](c3ccccc3)OC(=O)[C@H]1[C@@H]2C(N)=O = 0.155
• C[C@@H]1ON(c2cccc(C(=O)OC(C)(C)C)c2)[C@H](c2ccc(Br)cc2)[C@H]1C(=O)N1C(=O)OC[C@H]1Cc1ccccc1 = 0.272

====

protocol.description: small-molecule binders of probe aNOTCH3, primary screen, biochemical, small-molecule microarray, 635/667 nm fluorescence (AID 1120);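 further: probe is a biotin-tagged antibody raised against NOTCH3 rather than NOTCH3 protein; score merges spot fluorescence near 667 nm with spot signal to noise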
test.conditions: higher = more signal
Collected composite z-score values appear next to each entry.
reported.endpoint: composite z-score

• CN1C(=O)C2C=CC(C(O)c3ccc(I)cc3)N(N3CCCCC3)C2C1=O (centres undefined) = 0.748
• C=CCOC(=O)[C@@H]1[C@H]2C(=O)O[C@H](c3ccccc3)[C@H](c3ccccc3)N2[C@H](c2ccc(OCCOC(=O)[C@@H]3C[C@@H]4C(=O)N[C@@H](CCCCN(C)C)C(=O)N4[C@@H]3c3ccc(O)cc3)cc2)[C@@]12C(=O)Nc1ccc(I)cc12 = 0.0738
• C=C(COC)/C(=C/C[C@H](OC(=O)c1ccncc1)c1ccc(OCCO)cc1)c1cnc2ccccc2c1 = 0.227
• CC(C)c1ccc(NN2C(C(O)c3cc(C(F)(F)F)cc(C(F)(F)F)c3)C=CC3C(=O)N(c4ccccc4)C(=O)C32)cc1 (centres undefined) = 0.0203
• C[N+](C)(C)CCCCNC(=O)[C@H]1C[C@H]2C(=O)N[C@@H](Cc3ccccc3)C(=O)N2[C@H]1c1ccc(O)cc1 = -0.0343
• CN1C(=O)C2C=CC(C(O)C3CC=CCC3)N(NC(=O)OC(C)(C)C)C2C1=O (centres undefined) = 0.178
• O=C(c1ccccc1)N1Cc2ccccc2[C@@H]2OC(c3ccc(OCCCO)cc3)=N[C@]2(Cc2ccccc2)C1=O = 0.225
• C=CCOC(=O)[C@H]1[C@@H]2C(=O)O[C@@H](c3ccccc3)[C@@H](c3ccccc3)N2[C@@H](c2ccc(OCCOC(=O)[C@@H]3C[C@@H]4C(=O)N[C@@H](CCCC[N+](C)(C)C)C(=O)N4[C@@H]3c3ccc(O)cc3)cc2)[C@]12C(=O)Nc1ccccc12 = 0.011
• O=C1NC(=O)C2C1C=CC(C(O)c1ccccc1)N2Nc1ccc(Cl)cc1Cl (centres undefined) = 0.405
• COc1ccc(C(O)C2C=CC3C(=O)NC(=O)C3N2Nc2ccccn2)c2ccccc12 (centres undefined) = -0.0431
• COC(=O)[C@@]1(Cc2ccc(OC)cc2)[C@H]2c3cc(C(=O)N(C)C)n(CCN4CNCC4=O)c3C[C@H]2CN1C(=O)c1ccccc1 = 0.0539
• C=C(CCCC)/C(=C/C[C@@H](OC(C)=O)c1ccccc1OCCO)c1cnc2ccccc2c1 = 0.033
• COCCOC(=O)N1C(=O)[C@@]2(c3cc(C#CC4=CCCCC4)ccc31)[C@H](C(N)=O)[C@H]1C(=O)O[C@H](c3ccccc3)[C@H](c3ccccc3)N1[C@@H]2c1ccc(OCCO)cc1 = -0.315
• O=C1c2ccccc2[C@@]2(Cc3ccccc3N(CC(F)(F)F)C2=O)[C@H](c2ccc(CO)cc2)N1Cc1ccccc1Cl = -0.191

====

protocol.description: basal MM1S mitochondrial membrane potential changes, profiling panel, cell-based, JC-1 fluorescence, 24 h, 100 nL compound (AID 1170); further: test concentration not given here
test.conditions: higher = more signal
Label true when z-score is at or above -0.4; otherwise label false.

- CCCCCC1=C2CNC(CCC)(C(=O)OC)C=C2C(C)C1=O (stereo not given): false
- C=CC[C@@]1(C(N)=O)N=C(c2ccc(OCCCO)cc2)O[C@@H]1c1ccccc1CN=[N+]=[N-]: false
- CC(C)C[C@H]1NC(=O)[C@@]23C(=O)N[C@@H](Cc4ccccc4)C2[C@H](C)[C@@]2(C)O[C@H]2C3/C=C/C/C=C\CNC(=O)[C@H](Cc2ccccc2)NC1=O (stereo not given in full): true
- COc1ccc(COC2OC[C@]3(C)[C@H]4C5=C(CN3C(=O)OC(C)(C)C)[C@H](C)C(CO)C(CO)C5CC[C@@H]24)cc1 (stereo not given in full): true
- CN1C(=O)C2C=CC(C(O)C3CCCCC3)N(Nc3ccc([N+](=O)[O-])cc3[N+](=O)[O-])C2C1=O (stereo not given): true
- C=CC[C@@]1(C(=O)N(C)C)N=C(c2ccc(OCCCO)cc2)O[C@@H]1c1ccccc1N=[N+]=[N-]: false
- O=C1C2C=CC(C(O)c3ccc(F)cc3)N(Nc3ccccc3F)C2C(=O)N1c1ccccc1 (stereo not given): true
- COCCOC(=O)N1C(=O)[C@@]2(c3ccccc31)[C@H](c1ccccc1OCCO)N1[C@H](c3ccccc3)[C@H](c3ccccc3)OC(=O)[C@H]1[C@@H]2C(=O)Nc1nc2ccccc2s1: false
- COc1ccc(C(O)C2C=CC3C(=O)N(C)C(=O)C3N2N2CCCCC2)c2ccccc12 (stereo not given): true
- COc1ccc(CCN2C(=O)[C@@]3(c4ccc([N+](=O)[O-])cc4)CC(=O)N(C4CCCCC4)[C@@H]3c3ccc(CO)cc32)cc1: false
- C[N+](C)(C)CCCC[C@@H]1NC(=O)[C@@H]2C[C@H](C(=O)NCCCCCN)[C@H](c3cccc(OCCO)c3)N2C1=O: true
- CC[C@@H]1C=C(C(=O)O)[C@H](c2ccco2)N1S(=O)(=O)c1ccc(C)cc1: false
- O=C1NC(=O)C2C1C=CC(C(O)c1ccccc1)N2Nc1ccc(Cl)cc1Cl (stereo not given): false

====

measurement.target: NADPH oxidase 4 (Homo sapiens) (UniProt Q9NPH5)
Sequence (Q9NPH5 whole entry, looked up): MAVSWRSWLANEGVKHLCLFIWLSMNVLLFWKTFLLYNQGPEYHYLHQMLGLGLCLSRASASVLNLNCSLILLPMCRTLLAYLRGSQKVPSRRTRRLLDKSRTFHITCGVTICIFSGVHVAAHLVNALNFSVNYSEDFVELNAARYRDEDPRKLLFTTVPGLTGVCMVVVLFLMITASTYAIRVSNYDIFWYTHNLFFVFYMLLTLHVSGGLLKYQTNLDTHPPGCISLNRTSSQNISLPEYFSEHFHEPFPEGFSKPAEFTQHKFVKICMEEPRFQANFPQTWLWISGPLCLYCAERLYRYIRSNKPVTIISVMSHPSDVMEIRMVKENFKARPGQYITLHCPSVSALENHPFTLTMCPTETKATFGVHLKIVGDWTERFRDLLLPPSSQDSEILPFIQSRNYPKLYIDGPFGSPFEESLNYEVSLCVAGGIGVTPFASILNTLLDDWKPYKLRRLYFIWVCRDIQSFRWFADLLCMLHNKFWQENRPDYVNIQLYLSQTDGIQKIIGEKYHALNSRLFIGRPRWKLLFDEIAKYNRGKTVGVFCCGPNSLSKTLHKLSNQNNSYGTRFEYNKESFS
protocol.description: NOX4-dependent H2O2 signal modulators, primary screen, NOX inhibitor project, cell-based, HEK293-NOX4, tetracycline-induced, Amplex Red fluorescence (AID 1160)
test.conditions: 45 min, higher = more signal, called active from +8 up or from −8 down
The source made the active and inactive calls.
reported.endpoint: z-score

• O=C1O[C@H](c2ccccc2)[C@H](c2ccccc2)N2[C@H]1[C@@H](C(=O)Nc1nc3ccccc3s1)[C@]1(C(=O)Nc3ccc(C#CCCO)cc31)[C@H]2c1ccc(OCCO)cc1 = 0.111 (inactive)
• O=C1OCC=C[C@H]2OC34C=CCN(c5ccc6ccccc6c5)C(=O)[C@H]3N(CCCCCCO)C(=O)[C@@H]4[C@@H]12 (stereo partly specified) = 0.0322 (inactive)
• COc1ccc([Si](C)(C)[C@H]2[C@H](CCO)O[C@@]3(C(=O)N(C)c4c(Br)cc(C)cc43)[C@@H]2C)cc1 = -1.15 (inactive)
• O=C1OCCC/C=C\[C@H]2OC34C=CCN(Cn5nnc6ccccc65)C(=O)[C@H]3N(CCCCCCO)C(=O)[C@@H]4C12 (stereo partly specified) = 0.377 (inactive)
• CN(C)C(=O)[C@]1(Cc2ccccc2CN=[N+]=[N-])N=C(c2ccc(OCCCO)cc2)O[C@@H]1c1ccccc1CN=[N+]=[N-] = -1.6 (inactive)
• COc1ccc([Si](C)(C)[C@H]2[C@H](CC(=O)N3Cc4ccccc4C[C@H]3CO)O[C@@]3(C(=O)N(Cc4ccc(N5CCC5=O)cc4)c4ccccc43)[C@@H]2C)cc1 = 0.465 (inactive)

====

measurement.target: Torsin-1A (Homo sapiens)
protocol.description: small-molecule binders of mutant TOR1A in lysate, primary screen, cell lysate, small-molecule microarray, COS7 lysate, 635/667 nm fluorescence (AID 1150);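 further: score pools 667 nm emission and signal to noise measuring lysate protein binding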
test.conditions: COS7 hTOR1A mutant lysate, 635 nm fluorescence, higher = more signal
Label Satisfied when composite z-score is at or above 0.4; otherwise label Not satisfied.

* Cc1ccc(C(C)CC(O)C2C=CC3C(=O)N(c4ccccc4)C(=O)C3N2Nc2ccc([N+](=O)[O-])cc2)o1 (stereo unspecified) | Not satisfied
* COCCOC(=O)N1C(=O)[C@@]2(c3cc(C#CCCO)ccc31)[C@H](c1ccc(OCCO)cc1)N1[C@H](c3ccccc3)[C@H](c3ccccc3)OC(=O)[C@H]1[C@@H]2C(=O)N1CCN(c2ncccn2)CC1 | Not satisfied
* O=C1NC(=O)C2C1C=CC(C(O)C(c1ccccc1)c1ccccc1)N2Nc1ccc(Cl)cc1Cl (stereo unspecified) | Not satisfied
* COC(=O)[C@@]1(Cc2ccc(OC)cc2)[C@H]2c3cc(C(=O)N4CCCC4)n(Cc4ccc(OC)c(OC)c4)c3C[C@H]2CN1C(=O)c1ccccc1 | Satisfied
* COc1ccc(C(O)C2C=CC3C(=O)NC(=O)C3N2Nc2ccccn2)cc1 (stereo unspecified) | Not satisfied
* COc1ccc(NN2C(C(O)c3ccc([N+](=O)[O-])cc3)C=CC3C(=O)N(C4CCCCC4)C(=O)C32)cc1 (stereo unspecified) | Not satisfied
* COc1ccc(C#Cc2ccc3c(c2)[C@]2(C(=O)N3)[C@H](c3ccccc3OCCO)N3[C@H](c4ccccc4)[C@H](c4ccccc4)OC(=O)[C@H]3[C@@H]2C(=O)O)cc1 | Satisfied
* COC(=O)c1c(CC[C@@H](CO)NC(=O)N[C@@H](C)Cn2cc(C3(O)CCCCC3)nn2)oc(C(C)=O)c1C(=O)OC | Satisfied
* O=C1c2ccccc2[C@](Cc2ccccc2I)(C(=O)NC2CC2)[C@H](c2ccc(CO)cc2)N1Cc1ccccc1 | Satisfied
* CCCC[C@H]1OB(O)C[C@H]2C1=C(COc1ccccc1)C[C@H]1C(=O)N(C)C(=O)[C@H]12 | Not satisfied
* CN(C)CCCNC(=O)[C@@]1(c2ccc([N+](=O)[O-])cc2)CC(=O)N(C2CCCCC2)[C@@H]1c1ccc(CO)cc1 | Not satisfied
* O=C1O[C@H](c2ccccc2)[C@H](c2ccccc2)N2[C@H]1[C@@H](C(=O)O)[C@]1(C(=O)Nc3ccc(C#CC4=CCCCC4)cc31)[C@H]2c1ccccc1OCCO | Satisfied
* CC(C)c1ccc(NN2C(C(O)C(c3ccccc3)c3ccccc3)C=CC3C(=O)N(c4ccccc4)C(=O)C32)cc1 (stereo unspecified) | Satisfied
* O=C1OCC=C[C@H]2OC34C=CCN(CCN5CCOCC5)C(=O)[C@H]3N(CCCO)C(=O)[C@@H]4[C@@H]12 (stereo partly specified) | Not satisfied
* COCCOC(=O)N1C(=O)[C@@]2(c3cc(C#CC4=CCCCC4)ccc31)[C@H](c1ccc(O)cc1)N1[C@H](c3ccccc3)[C@H](c3ccccc3)OC(=O)[C@H]1[C@@H]2C(N)=O | Satisfied
* CC[C@@H]1C=C(C(=O)O)[C@H](c2ccco2)N1S(=O)(=O)c1ccc(C)cc1 | Not satisfied
* CCOC(=O)[C@H]1C/C=C/C[C@H](C(=O)OCC)C(=O)O[C@H]2[C@@H](OC)O[C@H](CO)[C@@H](OC(=O)Nc3ccc(C#N)cc3)[C@@H]2OC1=O | Satisfied
* CC(C)(C)OC(=O)CC[C@]1(C(=O)O)N=C(c2ccc(OCCCO)cc2)O[C@H]1c1ccccc1N=[N+]=[N-] | Satisfied
* COCCOC(=O)N1C(=O)[C@@]2(c3cc(C#Cc4ccc(OC)cc4)ccc31)[C@H](c1ccc(O)cc1)N1[C@H](c3ccccc3)[C@H](c3ccccc3)OC(=O)[C@H]1[C@@H]2C(=O)NC[C@H](O)c1ccccc1 | Satisfied
* C=CCN1C(=O)[C@]2(O[C@H](CCO)[C@@H]([Si](C)(C)c3ccc(OC)cc3)[C@@H]2C)c2cc(N3C(=O)c4cccc5cccc3c45)ccc21 | Not satisfied
* COc1ccc([Si](C)(C)[C@H]2[C@H](CC(=O)N3Cc4ccccc4C[C@H]3CO)O[C@@]3(C(=O)N(Cc4ccc(N5CCC5=O)cc4)c4ccccc43)[C@@H]2C)cc1 | Satisfied
* COCCOC(=O)N1C(=O)[C@@]2(c3cc(C#CC4(O)CCCCCC4)ccc31)[C@H](c1ccc(O)cc1)N1[C@H](c3ccccc3)[C@H](c3ccccc3)OC(=O)[C@H]1[C@@H]2C(=O)Nc1nc2ccccc2s1 | Satisfied
* O=C1OCCC/C=C\[C@H]2OC34C=CCN(Cn5nnc6ccccc65)C(=O)[C@H]3N(CCO)C(=O)[C@@H]4C12 (stereo partly specified) | Not satisfied
* C=CCOC(=O)[C@@H]1[C@H]2C(=O)O[C@H](c3ccccc3)[C@H](c3ccccc3)N2[C@H](c2ccc(OCCOC(=O)[C@@H]3C[C@@H]4C(=O)N[C@@H](CCCCN(C)C)C(=O)N4[C@@H]3c3ccc(O)cc3)cc2)[C@@]12C(=O)Nc1ccc(I)cc12 | Satisfied
* COCCCNC(=O)[C@@]1(Cc2ccccc2N=[N+]=[N-])N=C(c2ccc(OCCCO)cc2)O[C@H]1c1ccccc1N=[N+]=[N-] | Satisfied
